The values you see were collected from paper PMC10138714.

Here, each record is paired with measured % of Mice Impaired data.
- System: mice
- Experimental protocol: Motor coordination in the chimney test
- Type: in vivo, male Albino Swiss (CD-1) mice
- Test context: chimney test, 30 mg/kg i.p., 30 min after injection, n = 8
State just the number; it will be interpreted in %.

Molecule: CCC(=O)c1ccc(OCCCCCCCCN2CCN(c3ccncc3)CC2)cc1 [KSK-74]
Output unit: %
% of Mice Impaired: 12.5
//
Molecule: c1ccc(-c2ccc(OCCCN3CCN(c4ccncc4)CC3)cc2)cc1 [KSK-61]
Output unit: %
% of Mice Impaired: 25
//
Molecule: CC(=O)c1ccc(OCCCCCCCCN2CCN(c3ccncc3)CC2)cc1 [KSK-73]
Output unit: %
% of Mice Impaired: 0

Asked: Query (molecule): O=C(c1ccccc1)c1ccc(OCCCN2CCN(c3ccncc3)CC2)cc1 [KSK-63] ; field requested: % of Mice Impaired
Given back: 0
